system: ncRNAs (SEQ ID NO 28-89); test: ncRNA arrays of melanocytes, keratinocytes, normal skin, melanoma cell lines and patient samples; parameters: species or system human; details: melanoma patient 6 sample compared to normal skin
Short version: ncRNA array expression, patient 6 at least -0.8 is 1 (yes), less is 0 (no).

For orientation, consider the following solved cases.
- Substance: "SEQ ID NO 80 (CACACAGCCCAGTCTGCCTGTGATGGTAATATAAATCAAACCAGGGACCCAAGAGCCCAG; listed as DNA, chemistry not given here; listed as Homo sapiens)"
  Target System: "ncRNAs (SEQ ID NO 28-89)"
  Label Class: "0 (no)"
- Substance: "SEQ ID NO 77 (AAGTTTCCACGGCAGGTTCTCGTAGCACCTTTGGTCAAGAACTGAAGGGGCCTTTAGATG; listed as DNA, chemistry not given here; listed as Homo sapiens)"
  Target System: "ncRNAs (SEQ ID NO 28-89)"
  Label Class: "0 (no)"
- Substance: "SEQ ID NO 86 (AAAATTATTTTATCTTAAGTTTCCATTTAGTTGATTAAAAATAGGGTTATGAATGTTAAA; listed as DNA, chemistry not given here; listed as Homo sapiens)"
  Target System: "ncRNAs (SEQ ID NO 28-89)"
  Label Class: "1 (yes)"
- Substance: "SEQ ID NO 87 (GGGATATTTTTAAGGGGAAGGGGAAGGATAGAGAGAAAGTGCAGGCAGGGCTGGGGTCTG; listed as DNA, chemistry not given here; listed as Homo sapiens)"
  Target System: "ncRNAs (SEQ ID NO 28-89)"
  Label Class: "0 (no)"

Next:
Exam item: Could you tell me if the measured ncRNA array expression, patient 6 of SEQ ID NO 72 (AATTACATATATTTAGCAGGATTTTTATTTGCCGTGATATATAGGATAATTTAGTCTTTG; listed as DNA, chemistry not given here; listed as Homo sapiens) reaches -0.8 or more?
Marked response: 1 (yes)

* * *

system: ncRNAs (SEQ ID NO 28-89); experiment: ncRNA arrays of melanocytes, keratinocytes, normal skin, melanoma cell lines and patient samples; set-up: species or system human; conditions: melanoma patient 5 sample compared to normal skin
Entries annotated with measured ncRNA array expression, patient 5

Please review the following examples before continuing.
- Substance: "SEQ ID NO 34 (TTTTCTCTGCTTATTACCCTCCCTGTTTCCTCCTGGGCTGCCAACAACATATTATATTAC; listed as DNA, chemistry not given here; listed as Homo sapiens)"
  Target System: "ncRNAs (SEQ ID NO 28-89)"
  ncRNA array expression, patient 5: 2.722
- Substance: "SEQ ID NO 79 (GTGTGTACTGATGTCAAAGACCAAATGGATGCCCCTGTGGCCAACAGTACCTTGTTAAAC; listed as DNA, chemistry not given here; listed as Homo sapiens)"
  Target System: "ncRNAs (SEQ ID NO 28-89)"
  ncRNA array expression, patient 5: 1.43
- Substance: "SEQ ID NO 78 (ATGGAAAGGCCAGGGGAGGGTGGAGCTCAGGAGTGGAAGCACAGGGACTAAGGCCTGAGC; listed as DNA, chemistry not given here; listed as Homo sapiens)"
  Target System: "ncRNAs (SEQ ID NO 28-89)"
  ncRNA array expression, patient 5: "−3.41"
- Substance: "SEQ ID NO 41 (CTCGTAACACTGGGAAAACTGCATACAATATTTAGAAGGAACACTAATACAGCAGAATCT; listed as DNA, chemistry not given here; listed as Homo sapiens)"
  Target System: "ncRNAs (SEQ ID NO 28-89)"
  ncRNA array expression, patient 5: "−2.566"
- Substance: "SEQ ID NO 68 (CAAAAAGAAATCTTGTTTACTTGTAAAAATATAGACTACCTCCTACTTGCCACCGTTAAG; listed as DNA, chemistry not given here; listed as Homo sapiens)"
  Target System: "ncRNAs (SEQ ID NO 28-89)"
  ncRNA array expression, patient 5: "−1.828"

Exam item: # get_value(readout='ncRNA array expression, patient 5', item= SEQ ID NO 57 (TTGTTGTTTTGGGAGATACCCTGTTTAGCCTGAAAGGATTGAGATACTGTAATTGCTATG; listed as DNA, chemistry not given here; listed as Homo sapiens) )
Marked response: 2.211

Exam item: Record: SEQ ID NO 43 (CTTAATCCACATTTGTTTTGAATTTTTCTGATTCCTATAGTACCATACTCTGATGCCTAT; listed as DNA, chemistry not given here; listed as Homo sapiens)
Marked response: −1.269

Exam item: Record: SEQ ID NO 46 (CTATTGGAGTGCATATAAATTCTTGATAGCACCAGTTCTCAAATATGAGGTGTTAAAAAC; listed as DNA, chemistry not given here; listed as Homo sapiens)
Marked response: 0.9853

Exam item: Record: SEQ ID NO 86 (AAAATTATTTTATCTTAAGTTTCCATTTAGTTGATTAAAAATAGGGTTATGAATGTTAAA; listed as DNA, chemistry not given here; listed as Homo sapiens)
Marked response: −0.09781

Exam item: Record: SEQ ID NO 38 (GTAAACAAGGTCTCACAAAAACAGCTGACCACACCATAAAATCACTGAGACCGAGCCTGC; listed as DNA, chemistry not given here; listed as Homo sapiens)
Marked response: −1.288

Exam item: Record: SEQ ID NO 81 (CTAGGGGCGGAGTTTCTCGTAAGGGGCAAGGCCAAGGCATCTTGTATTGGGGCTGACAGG; listed as DNA, chemistry not given here; listed as Homo sapiens)
Marked response: −2.515

Exam item: Record: SEQ ID NO 69 (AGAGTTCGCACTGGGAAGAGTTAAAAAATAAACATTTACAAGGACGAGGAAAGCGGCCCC; listed as DNA, chemistry not given here; listed as Homo sapiens)
Marked response: −1.797

Exam item: Record: SEQ ID NO 50 (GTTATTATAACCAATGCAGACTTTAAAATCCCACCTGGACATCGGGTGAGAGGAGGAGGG; listed as DNA, chemistry not given here; listed as Homo sapiens)
Marked response: −1.782

Exam item: Record: SEQ ID NO 88 (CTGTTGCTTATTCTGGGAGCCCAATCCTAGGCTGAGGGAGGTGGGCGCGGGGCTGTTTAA; listed as DNA, chemistry not given here; listed as Homo sapiens)
Marked response: −1.192
